Test system: canine adipocytes
Assay: Lipolytic activity in canine fatty cell (glycerol release)
Assay type: cell-based, dogs
Details: Canis lupus familiaris, Adipocyte; read-out: Intrinsic activity (%)
Counter-ions that a name gives are not always drawn.
Experimental Readout: Emax (%)

In [3]: df
Out[3]:
                                   molecule  value_measured
0  CN(C)S(=O)(=O)Nc1cc(C(O)CNCCOc2ccc3c(c2)sc2ccccc23)ccc1O (racemic) [Example 40, Hydrochloride]              92
1  CC(=O)Nc1ccc2c(c1)Cc1cc(OCCNCC(O)c3ccc(O)c(NS(C)(=O)=O)c3)ccc1-2 (racemic) [Example 50, Hydrochloride]             112
2  CS(=O)(=O)Nc1cc(C(O)CNCCOc2ccc3c(c2)Cc2cc(N)ccc2-3)ccc1O (racemic) [Example 52, Hydrochloride]             100

----------
Target: human β3 (Homo sapiens)
Construct: And then full length of human β3 gene was cloned using this fragment as a probe; expressed in transfected cells; host or cells: CHO cells (Chinese hamster ovary), pcDNA3 vector
Sequence (P13945 whole entry, the tested form may be a part): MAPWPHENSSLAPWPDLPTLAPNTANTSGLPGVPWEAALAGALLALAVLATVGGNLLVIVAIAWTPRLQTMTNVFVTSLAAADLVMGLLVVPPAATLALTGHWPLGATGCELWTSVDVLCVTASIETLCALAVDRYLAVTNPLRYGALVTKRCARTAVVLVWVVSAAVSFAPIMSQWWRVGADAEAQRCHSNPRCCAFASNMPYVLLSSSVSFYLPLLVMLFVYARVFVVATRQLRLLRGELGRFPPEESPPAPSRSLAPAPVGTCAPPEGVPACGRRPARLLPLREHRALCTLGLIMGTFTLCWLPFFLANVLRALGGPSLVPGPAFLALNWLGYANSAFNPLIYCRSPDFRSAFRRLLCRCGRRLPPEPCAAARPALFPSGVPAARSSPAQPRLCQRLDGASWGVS
Assay: Human β3-agonist activity (cAMP in CHO cells transfected with human β3 gene)
Format: cell-based
Conditions: cAMP, CHO cells with human β3; read-out: ED50 (the source's name)
Counter-ions that a name gives are not always drawn.
log10(EC50) values for the compounds below.
Experimental Readout: log10(EC50) (log10 of the value in nM)

In [3]: df
Out[3]:
                                   compound             assay_system  experimental_readout  value_measured
0  CN(C)S(=O)(=O)c1cc(C(O)CNCCOc2ccc3c(c2)[nH]c2ccccc23)ccc1O (racemic) [Example 89, Hydrochloride]  human β3 (Homo sapiens)           log10(EC50)            2.54
1  CC(=O)Nc1ccc2c(c1)Cc1cc(OCCNC[C@H](O)c3cccc(NS(C)(=O)=O)c3)ccc1-2 [Example 71, Hydrochloride]  human β3 (Homo sapiens)           log10(EC50)            2.26
2  CNS(=O)(=O)c1cc([C@@H](O)CNCCOc2ccc3c(c2)[nH]c2ccccc23)ccc1O [Example 81, Hydrochloride]  human β3 (Homo sapiens)           log10(EC50)            0.79
3  CC(=O)Nc1ccc2[nH]c3cc(OCCNCC(O)c4cccc(NS(C)(=O)=O)c4)ccc3c2c1.Cl (racemic) [Example 68]  human β3 (Homo sapiens)           log10(EC50)            1.58
4  CS(=O)(=O)Nc1cccc(C(O)CNCCOc2ccc3c(c2)oc2ccccc23)c1 (racemic) [Example 9, Hydrochloride]  human β3 (Homo sapiens)           log10(EC50)            2.88
5  CS(=O)(=O)Nc1cc(C(O)CNCCOc2ccc3c(c2)[nH]c2ccccc23)ccc1CO (racemic) [Example 84]  human β3 (Homo sapiens)           log10(EC50)            1.76
6  O=[N+]([O-])c1cc(C(O)CNCCOc2ccc3c(c2)[nH]c2ccccc23)ccc1O (racemic) [Example 18, Hydrochloride]  human β3 (Homo sapiens)           log10(EC50)            1.51

----------
Test system: canine adipocytes
Assay: Lipolytic activity in canine fatty cell (glycerol release)
Assay type: cell-based, dogs
Conditions: Canis lupus familiaris, Adipocyte; read-out: Intrinsic activity (%)
Counter-ions that a name gives are not always drawn.
Rule: Emax below 90% gives 1.0. Equal to or above 90% gives 0.0.

                                    molecule  assigned_category
 0  OCc1cc(C(O)CNCCOc2ccc3c(c2)[nH]c2ccccc23)ccc1O (racemic) [Example 67, Hydrochloride]                0.0
 1  CN(C)S(=O)(=O)Nc1cc(C(O)CNCCOc2ccc3c(c2)[nH]c2ccccc23)ccc1O (racemic) [Example 25, Hydrochloride]                1.0
 2  CS(=O)(=O)Nc1cc([C@@H](O)CNCCOc2ccc3c(c2)sc2ccccc23)ccc1O [Example 72, Hydrochloride]                0.0
 3  CS(=O)(=O)Nc1cccc(C(O)CNCCOc2ccc3c(c2)sc2ccccc23)c1 (racemic) [Example 41, Hydrochloride]                0.0
 4  CC(C)NCC(O)c1ccc(O)c(O)c1 (centres unmarked) [Isoproterenol, reference compound]                0.0
 5  CS(=O)(=O)Nc1cc([C@@H](O)CNCCOc2ccc3c(c2)oc2ccccc23)ccc1O [Example 69, Hydrochloride]                0.0
 6  CS(=O)(=O)Nc1cc(C(O)CNCCOc2ccc3c(c2)[nH]c2ccccc23)ccc1O.Cl (racemic) [Example 2, Hydrochloride]                1.0
 7  CS(=O)(=O)Nc1cccc(C(O)CNCCOc2ccc3c(c2)oc2ccccc23)c1 (racemic) [Example 9, Hydrochloride]                0.0
 8  CS(=O)(=O)Nc1cc(C(O)CNCCOc2ccc3c(c2)sc2ccccc23)ccc1O (racemic) [Example 38, Hydrochloride]                0.0
 9  CN(C)S(=O)(=O)Nc1cc(C(O)CNCCOc2ccc3c(c2)oc2ccccc23)ccc1O (racemic) [Example 43, Hydrochloride]                1.0
10  OC(CNCCOc1ccc2c(c1)[nH]c1ccccc12)c1ccccc1 (racemic) [Example 31, Hydrochloride]                0.0
11  CC(C)S(=O)(=O)Nc1cc(C(O)CNCCOc2ccc3c(c2)[nH]c2ccccc23)ccc1O (racemic) [Example 54, Hydrochloride]                0.0
12  O[C@@H](CNCCOc1ccc2c(c1)[nH]c1ccccc12)c1ccccc1 [Example 32, Hydrochloride]                0.0
13  COC(CNCCOc1ccc2c(c1)[nH]c1ccccc12)c1ccc(N)c(NS(C)(=O)=O)c1 (racemic) [Example 92, Hydrochloride]                0.0
